Target: hNav1.7 (Homo sapiens (Human), UniProt Q15858)
Sequence (Q15858 other isoform, or with tags, fused parts or gaps): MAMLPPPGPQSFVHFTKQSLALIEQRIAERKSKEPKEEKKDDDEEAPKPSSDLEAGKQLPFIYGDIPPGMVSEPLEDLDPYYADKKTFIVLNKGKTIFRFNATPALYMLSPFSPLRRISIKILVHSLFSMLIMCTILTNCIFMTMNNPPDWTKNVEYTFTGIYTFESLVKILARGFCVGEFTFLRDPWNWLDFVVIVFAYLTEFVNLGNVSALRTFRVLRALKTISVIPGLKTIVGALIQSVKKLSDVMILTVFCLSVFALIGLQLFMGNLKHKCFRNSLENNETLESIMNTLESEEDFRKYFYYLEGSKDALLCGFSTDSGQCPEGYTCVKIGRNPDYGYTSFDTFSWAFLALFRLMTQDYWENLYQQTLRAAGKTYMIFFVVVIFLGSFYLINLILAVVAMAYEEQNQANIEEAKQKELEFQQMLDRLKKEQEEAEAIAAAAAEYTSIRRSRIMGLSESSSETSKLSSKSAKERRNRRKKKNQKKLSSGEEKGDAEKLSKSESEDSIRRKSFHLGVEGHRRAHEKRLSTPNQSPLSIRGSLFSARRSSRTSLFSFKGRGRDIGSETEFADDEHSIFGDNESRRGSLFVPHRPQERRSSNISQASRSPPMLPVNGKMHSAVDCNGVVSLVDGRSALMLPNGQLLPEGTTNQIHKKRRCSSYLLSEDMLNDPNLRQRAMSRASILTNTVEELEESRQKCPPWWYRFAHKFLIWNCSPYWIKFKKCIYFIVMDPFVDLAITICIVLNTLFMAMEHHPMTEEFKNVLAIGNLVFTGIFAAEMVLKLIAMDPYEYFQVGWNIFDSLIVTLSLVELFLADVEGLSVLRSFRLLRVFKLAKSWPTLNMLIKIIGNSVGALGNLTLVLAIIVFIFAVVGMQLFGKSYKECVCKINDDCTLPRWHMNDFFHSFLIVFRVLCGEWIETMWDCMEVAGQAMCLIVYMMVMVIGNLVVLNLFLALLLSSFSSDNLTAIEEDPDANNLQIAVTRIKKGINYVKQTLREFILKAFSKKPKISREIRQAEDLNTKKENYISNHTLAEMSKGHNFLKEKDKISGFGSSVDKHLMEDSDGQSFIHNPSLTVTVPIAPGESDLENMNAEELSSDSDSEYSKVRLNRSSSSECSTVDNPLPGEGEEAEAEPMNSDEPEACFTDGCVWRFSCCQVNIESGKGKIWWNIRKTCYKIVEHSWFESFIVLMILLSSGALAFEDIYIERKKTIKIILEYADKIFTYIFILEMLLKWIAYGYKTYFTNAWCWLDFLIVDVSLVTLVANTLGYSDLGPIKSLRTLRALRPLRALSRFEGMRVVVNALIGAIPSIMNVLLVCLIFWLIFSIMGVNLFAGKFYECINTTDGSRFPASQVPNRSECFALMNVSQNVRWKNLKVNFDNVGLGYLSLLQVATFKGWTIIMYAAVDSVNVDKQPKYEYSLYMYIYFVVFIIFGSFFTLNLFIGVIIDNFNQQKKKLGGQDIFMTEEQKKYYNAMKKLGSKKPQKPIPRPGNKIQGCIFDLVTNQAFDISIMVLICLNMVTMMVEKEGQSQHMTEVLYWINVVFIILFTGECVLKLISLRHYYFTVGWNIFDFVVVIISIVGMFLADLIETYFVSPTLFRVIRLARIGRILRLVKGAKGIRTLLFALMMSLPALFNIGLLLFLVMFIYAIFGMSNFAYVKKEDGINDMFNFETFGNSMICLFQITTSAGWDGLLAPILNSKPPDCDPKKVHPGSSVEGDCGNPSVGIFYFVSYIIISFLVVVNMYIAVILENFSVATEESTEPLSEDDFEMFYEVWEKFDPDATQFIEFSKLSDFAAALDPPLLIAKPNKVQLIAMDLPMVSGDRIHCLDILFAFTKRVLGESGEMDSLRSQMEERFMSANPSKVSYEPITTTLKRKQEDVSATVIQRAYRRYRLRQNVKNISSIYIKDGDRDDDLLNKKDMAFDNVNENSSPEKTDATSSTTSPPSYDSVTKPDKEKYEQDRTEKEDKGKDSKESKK
Sequence (Q07699 19-218 partner): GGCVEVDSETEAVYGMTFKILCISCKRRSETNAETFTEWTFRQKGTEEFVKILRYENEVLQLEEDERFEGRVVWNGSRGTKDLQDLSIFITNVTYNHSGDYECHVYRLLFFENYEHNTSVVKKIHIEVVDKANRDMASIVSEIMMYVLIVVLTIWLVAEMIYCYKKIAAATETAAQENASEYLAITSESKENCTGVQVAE
Assay: Tritiated sulfonamide competitive binding to membranes from cells expressing hNav1.7 and the β1 subunit
Conditions: read-out: Ligand Binding Assay; 100 pM [3H]compound, membranes with hNav1.7 and β1 subunit, 18 h, room temperature
pIC50: −log10 of the molar value. Where a name gives a salt, the structure may show the parent alone.
Kindly return MET if reported pIC50 is no lower than 7; return NOT MET if it is lower.

The examples below pair each entry with its known result.
compound	system	label-class
CC1(COc2cc(F)c(C(=O)NS(=O)(=O)C3CC3)cc2C2CC2)CN(c2ccc(Cl)c(C(F)(F)F)n2)C1	hNav1.7 (Homo sapiens (Human), UniProt Q15858)	MET
C[C@@H](c1cc(Cl)cc(Cl)c1)N1CCC(COc2cc(F)c(C(=O)NS(C)(=O)=O)cc2C2CC2)CC1	hNav1.7 (Homo sapiens (Human), UniProt Q15858)	MET
O=C(NS(=O)(=O)C1CC1)c1cc(C2CC2)c(OCC2CCN(CCC(F)(F)F)CC2)cc1F	hNav1.7 (Homo sapiens (Human), UniProt Q15858)	MET
Cc1cc(F)ccc1S(=O)(=O)N1CCC(COc2cc(F)c(C(=O)NS(=O)(=O)C3CC3)cc2C2CC2)CC1	hNav1.7 (Homo sapiens (Human), UniProt Q15858)	MET

Quick check, pIC50 >= 7? CCS(=O)(=O)NC(=O)c1cc(C2CC2)c(OC[C@@H]2CC[C@@H](C)N([C@@H](C)c3cc(Cl)cc(Cl)c3)C2)cc1F [Example 344, trifluoroacetic acid salt]
MET

Can CS(=O)(=O)NC(=O)c1cc(C2CC2)c(OCC2CCN(Cc3ccccc3)CC2)cc1F be said to have pIC50 at or above 7?
NOT MET

For this compound, is measured pIC50 7 or higher? COC[C@H](c1ccccc1)N1CCC(COc2cc(F)c(C(=O)NS(C)(=O)=O)cc2C2CC2)CC1
NOT MET

----------
Biological target: hNav1.7 (Homo sapiens (Human), UniProt Q15858)
Experiment: Tritiated sulfonamide competitive binding to membranes from cells expressing hNav1.7 and the β1 subunit;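 note: Filter-bound radioactivity counted by liquid scintillation, nonspecific binding defined with excess unlabelled ligand, IC50 fitted to percent inhibition of specific binding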
Details: read-out: Ligand Binding Assay; 100 pM [3H]compound, membranes with hNav1.7 and β1 subunit, 18 h, room temperature
Counter-ions that a name gives are not always drawn.
observation-type: IC50 (nM)
Answer with a number only, understood to be in nM.

molecule	IC50 (nM)
CS(=O)(=O)NC(=O)c1cc(C2CC2)c(O[C@@H]2CCCN(Cc3cccc(C(F)(F)F)c3)C2)cc1F	5.4

Can you share its IC50? I mean this molecule: CC1(COc2cc(F)c(C(=O)NS(=O)(=O)C3CC3)cc2C2CC2)CN(c2ccncc2C(F)(F)F)C1 [Example 489, trifluoroacetic acid salt]
103

Find the recorded IC50 belonging to CS(=O)(=O)NC(=O)c1cc(C2CC2)c(O[C@@H]2CCCN(Cc3ccccc3-c3ccccc3)C2)cc1F [Example 442, trifluoroacetic acid salt] and report it.
3.1

I'd like to know its IC50. The molecule in question is CS(=O)(=O)NC(=O)c1cc(C2CC2)c(OCC2CCN(Cc3cc(F)c(Br)cc3F)CC2)cc1F
6.9

----------
Molecular target: hNav1.7 (Homo sapiens (Human))
Assay: Tritiated sulfonamide competitive binding to membranes from cells expressing hNav1.7 and the β1 subunit
Structures can show the parent of a compound that is named as a salt.
observation-type: IC50

Look over these answered cases.
compound	IC50
CS(=O)(=O)NC(=O)c1cc(C2CC2)c(CN2CCC(Oc3cc(C(F)(F)F)cc(Cl)c3F)CC2)cc1F [Example 536, trifluoroacetic acid salt]	5 nM
O=C(NS(=O)(=O)C1CC1)c1cc(C2CC2)c(CN2CCC(Oc3cc(Cl)cc(OC(F)(F)F)c3)CC2)cc1F [Example 549, trifluoroacetic acid salt]	4.4 nM
C[C@H](c1cc(Cl)cc(Cl)c1)N1CCN(Cc2cc(F)c(C(=O)NS(C)(=O)=O)cc2C2CC2)C[C@@H]1C	4.1 nM
O=C(NS(=O)(=O)C1CC1)c1cc(C2CC2)c(CN2C[C@@H]3C[C@H]2CN3S(=O)(=O)c2cc(Cl)cc(Cl)c2)cc1F [Example 559, trifluoroacetic acid salt]	18.9 nM
C[C@H](c1cc(Cl)cc(Cl)c1)N1CCC[C@@H](Oc2cc(F)c(C(=O)NS(C)(=O)=O)cc2C2CC2)C1 (single isomer, unassigned)	2.1 nM

Proceeding to the next compound to report its IC50.
Lookup: IC50 / hNav1.7 (Homo sapiens (Human)) / CS(=O)(=O)NC(=O)c1cc(C2CC2)c(O[C@@H]2CCCN(Cc3ccc(F)cc3C(F)(F)F)C2)cc1F
1.9 nM
